Source listed as ChEMBL document CHEMBL4145668.

Experiment: Cmax in Sprague-Dawley rat at 2.8 mg/kg, iv
Format: ADME, organism-based
Design: dose 2.8 mg/kg, route intravenous
Settings: in vivo
measuredAttribute: Cmax (ng/mL)
Only the number, expressed in ng/mL, is required.

What does the data say about its Cmax? Entry: CN(CC(=O)Nc1nc2ccc(OC(F)(F)F)cc2s1)C(=O)CNC(C)(C)C
1730

----------
Target: CYP3A4 (Homo sapiens)
Sequence (P08684 whole entry): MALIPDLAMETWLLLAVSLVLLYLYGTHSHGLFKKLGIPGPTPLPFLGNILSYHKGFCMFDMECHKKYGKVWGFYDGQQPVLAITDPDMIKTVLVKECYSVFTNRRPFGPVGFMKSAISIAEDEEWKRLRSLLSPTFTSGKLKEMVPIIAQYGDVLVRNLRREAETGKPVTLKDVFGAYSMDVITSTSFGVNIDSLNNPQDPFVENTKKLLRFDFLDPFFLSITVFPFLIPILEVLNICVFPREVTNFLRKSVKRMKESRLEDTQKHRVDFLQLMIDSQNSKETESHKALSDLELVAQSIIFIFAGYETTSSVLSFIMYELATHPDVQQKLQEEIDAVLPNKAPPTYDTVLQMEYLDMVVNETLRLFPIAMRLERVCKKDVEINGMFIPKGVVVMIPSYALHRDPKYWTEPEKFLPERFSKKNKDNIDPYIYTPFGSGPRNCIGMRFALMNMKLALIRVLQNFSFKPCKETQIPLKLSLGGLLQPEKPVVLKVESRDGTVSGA
Test: Inhibition of CYP3A4 (unknown origin) at 10 uM using testosterone as substrate relative to control
Assay type: ADME
Details: probe testosterone
measuredAttribute: inhibition at 10 µM

What does the data say about its inhibition at 10 µM? Entry: CN(CC(=O)Nc1nc2ccc(OC(F)(F)F)cc2s1)C(=O)CNC(C)(C)C
< 10%
